- condition.parameters: 293.15 K; 101.33 kPa; Liquid; Vibrating tube method
Numbers after ± are expanded uncertainties.

| molecule | mass density |
| --- | --- |
| CCC[NH+](CC)CC.O=S(=O)([O-])C(F)(F)F [N,N-diethylpropan-1-aminium trifluoromethanesulfonate] | 1229 ± 26 kg/m3 |
| C=CC[NH+](CC)CC.O=S(=O)([O-])C(F)(F)F [N,N-diethylprop-2-en-1-aminium trifluoromethanesulfonate] | 1263 ± 26 kg/m3 |
| CCC[NH+](C)CCC.O=S(=O)([O-])C(F)(F)F [N-methyl-N-propylpropan-1-aminium trifluoromethanesulfonate] | 1218 ± 25 kg/m3 |
| CC[NH+](C)CC.O=S(=O)([O-])C(F)(F)F [diethylmethylammonium trifluoromethanesulfonate] | 1292 ± 27 kg/m3 |
| C=CC[NH+](C)CC=C.O=S(=O)([O-])C(F)(F)F | 1261 ± 26 kg/m3 |
| C=CC[NH+](C)C.O=S(=O)([O-])C(F)(F)F [N,N-dimethylprop-2-en-1-aminium trifluoromethanesulfonate] | 1311 ± 28 kg/m3 |
| CCC[NH+](C)C.O=S(=O)([O-])C(F)(F)F [N,N-dimethylpropan-1-aminium trifluoromethanesulfonate] | 1284 ± 27 kg/m3 |

Sourced from the NIST ThermoML archive (doi:10.1021/je301284x)
